methodDescription: Tmax in BALB/c mouse at 10 mg/kg, po measured upto 24 hrs by LC-MS/MS analysis
Assay type: ADME, organism-based
conditionDescription: in vivo
valueType: Tmax (h)
Output spec: scalar in h, unitless text.

[[record]]
linenotation = "Cc1c(-c2ccc(NC(=O)c3c(F)cccc3Cl)cc2)cccc1-c1nn(C)c(=O)o1"
valuetype = "Tmax"
observedmeasurement = 1


Could you now consider this next molecule?
Query: Tmax; subject: "Cc1c(-c2ccc(NC(=O)c3c(F)cccc3F)cc2)cccc1-c1nn(C)c(=O)o1"
1

* * *

methodDescription: Apparent permeability across basolateral to apical side in human Caco-2 cells at 5 uM measured upto 120 mins in orbital shaker
Assay type: ADME, cell-based
valueType: Papp B→A at 2 h, 5 µM (×10⁻⁶ cm/s)
Output spec: scalar in ×10⁻⁶ cm/s, unitless text.

[[record]]
linenotation = "Cc1c(-c2ccc(NC(=O)c3c(F)cccc3Cl)cc2)cccc1-c1nn(C)c(=O)o1"
valuetype = "Papp B→A at 2 h, 5 µM"
displayunit = "×10⁻⁶ cm/s"
observedmeasurement = 4.5


Could you now consider this next compound?
Query: Papp B→A at 2 h, 5 µM; subject: "Cc1c(-c2ccc(NC(=O)c3c(F)cccc3F)cc2)cccc1-c1nn(C)c(=O)o1"
6.2
